The measured values listed here are drawn from ChEMBL document CHEMBL5230113.

- System: HepG2
- Run Description: Cytotoxicity against human HepG2 cells assessed as inhibition of cell growth
- Assay type: functional, cell-based
- Stated Conditions: Homo sapiens, HepG2; read-out: IC50
Readout Kind: pIC50
Would you please state pIC50, meaning minus log10 of the concentration in mol/L, as a bare number?

So what's the measured pIC50 for this one? O=C(Nc1cccc(-c2nc3ccccc3s2)c1)c1cccnc1
4.82

So what's the measured pIC50 for this one? N=C(N)N/N=C/c1cn(-c2nc3ccc(Oc4ccc(F)cc4)cc3s2)nc1-c1ccccc1
5.43

====

- Test system: HeLa
- Run Description: Antiproliferative activity against human HeLa cells assessed as cell growth inhibition
- Format: functional, cell-based
Readout Kind: IC50 (µM)
Write the answer as a number in µM, unit excluded.

Test system HeLa; read-out IC50; what value for O=C(CSc1nc2ccc(NC(=O)CCl)cc2s1)NCc1ccccc1 ?
5.13

Test system HeLa; read-out IC50; what value for O=C(Nc1cccc(-c2nc3ccccc3s2)c1)c1cccnc1 ?
15

====

- System: Tubulin
- Run Description: Inhibition of tubulin polymerization (unknown origin)
- Assay type: protein-complex assay, Homo sapiens
Readout Kind: IC50 (nM)
Write the answer as a number in nM, unit excluded.

So what's the measured IC50 for this one? COc1ccc(CN(C(=O)CSc2nc3ccccc3s2)c2cc(OC)c(OC)c(OC)c2)cc1O
1900

====

- System: HT-29
- Run Description: Antiproliferative activity against human HT-29 cells assessed as inhibition of cell growth
- Format: functional, cell-based
Readout Kind: pIC50
Would you please state pIC50, meaning minus log10 of the concentration in mol/L, as a bare number?

So what's the measured pIC50 for this one? CN(C)Cc1ccc2nc(NC(=O)N/N=C/c3ccc(OCc4ccc(C(F)(F)F)cc4)cc3O)sc2c1
6.62

====

- System: UniProt:Q16790
Readout Kind: IC50 (nM)
Write the answer as a number in nM, unit excluded.

So what's the measured IC50 for this one? CCCC(Sc1nc2cc(Cl)ccc2s1)C(=O)NS(=O)(=O)c1ccc(OC)cc1 (stereo unspecified)
490

====

- System: MCF7
- Run Description: Cytotoxicity against human MCF7 cells assessed as inhibition of cell growth
- Assay type: functional, cell-based
For each entry below, report its pIC50 value.
Would you please state pIC50, meaning minus log10 of the concentration in mol/L, as a bare number?

So what's the measured pIC50 for this one? CC1=NN(c2ccccc2)C(=O)/C1=N/Nc1cccc(-c2nc3ccccc3s2)c1
4.91

So what's the measured pIC50 for this one? O=C(CN1CCOCC1)Nc1ccc(-c2nc3ccccc3s2)cc1
8.00

So what's the measured pIC50 for this one? CN1CCN(CC(=O)Nc2ccc(-c3nc4ccccc4s3)cc2)CC1
8.00

So what's the measured pIC50 for this one? Cc1ccc2nc(N/N=C/c3cccnc3Nc3ccc(Cl)cc3)sc2c1
5.99

So what's the measured pIC50 for this one? Nc1ccc(-c2nc3ccccc3s2)cc1
9.52

So what's the measured pIC50 for this one? Cc1ccc2nc(N/N=C/c3cccnc3Nc3ccccc3)sc2c1
5.77

So what's the measured pIC50 for this one? CC(=O)N1N=C(C)/C(=N\Nc2cccc(-c3nc4ccccc4s3)c2)C1=O
4.91

So what's the measured pIC50 for this one? O=C(CN1CCCCC1)Nc1ccc(-c2nc3ccccc3s2)cc1
8.00

So what's the measured pIC50 for this one? O=C(Nc1cccc(-c2nc3ccccc3s2)c1)c1cccnc1
4.82

So what's the measured pIC50 for this one? N=C(N)N/N=C/c1cn(-c2nc3ccc(Oc4ccc(F)cc4)cc3s2)nc1-c1ccccc1
5.65

So what's the measured pIC50 for this one? Nc1ccc2sc(NC(=O)c3sc4ccccc4c3Cl)nc2c1
7.40

====

Readout Kind: IC50 (µM)
Write the answer as a number in µM, unit excluded.

Test system Prostaglandin G/H synthase 1 (Homo sapiens, UniProt P23219); read-out IC50; what value for CC1=NNC(=O)/C1=N/Nc1cccc(-c2nc3ccccc3s2)c1 ?
9.56

Test system Prostaglandin G/H synthase 1 (Homo sapiens, UniProt P23219); read-out IC50; what value for CC(=O)N1N=C(C)/C(=N\Nc2cccc(-c3nc4ccccc4s3)c2)C1=O ?
9.56

====

- Test system: SiHa
- Run Description: Antiproliferative activity against human SiHa cells assessed as cell growth inhibition
- Type: functional, cell-based
Readout Kind: pIC50
Would you please state pIC50, meaning minus log10 of the concentration in mol/L, as a bare number?

So what's the measured pIC50 for this one? COc1ccc(Cl)cc1C(=O)Nc1ccc(-c2nc3ccccc3s2)cc1
5.21

====

- System: Prostaglandin G/H synthase 2 (Homo sapiens)
- Sequence (P35354 whole entry): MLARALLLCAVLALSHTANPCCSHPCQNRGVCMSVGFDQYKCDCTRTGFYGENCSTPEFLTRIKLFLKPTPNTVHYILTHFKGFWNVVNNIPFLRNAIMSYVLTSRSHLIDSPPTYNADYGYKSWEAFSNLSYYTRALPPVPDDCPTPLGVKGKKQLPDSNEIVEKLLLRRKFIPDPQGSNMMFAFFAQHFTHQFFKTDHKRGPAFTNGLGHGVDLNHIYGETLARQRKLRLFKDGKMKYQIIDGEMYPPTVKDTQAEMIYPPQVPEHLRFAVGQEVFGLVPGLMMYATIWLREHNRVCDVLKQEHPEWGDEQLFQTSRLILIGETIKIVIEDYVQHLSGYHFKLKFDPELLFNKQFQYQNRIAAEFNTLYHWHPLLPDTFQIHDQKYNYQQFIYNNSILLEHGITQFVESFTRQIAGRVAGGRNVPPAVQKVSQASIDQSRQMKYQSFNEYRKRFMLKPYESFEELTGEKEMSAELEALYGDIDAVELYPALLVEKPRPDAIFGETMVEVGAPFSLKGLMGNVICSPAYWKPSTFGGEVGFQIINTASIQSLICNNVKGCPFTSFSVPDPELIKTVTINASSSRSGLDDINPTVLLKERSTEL
Readout Kind: IC50 (µM)
Write the answer as a number in µM, unit excluded.

So what's the measured IC50 for this one? CC(=O)N1N=C(C)/C(=N\Nc2cccc(-c3nc4ccccc4s3)c2)C1=O
0.1

====

- Run Description: Cytotoxicity against human SPCA1 cells assessed as inhibition of cell growth
- Format: functional, cell-based
Readout Kind: pIC50
Would you please state pIC50, meaning minus log10 of the concentration in mol/L, as a bare number?

So what's the measured pIC50 for this one? O=C(CSc1nc2ccc(NC(=O)CCl)cc2s1)NCc1ccccc1
5.41
